Source of measurements: PubChem BioAssay

# Assay: inhibitors of the yeast RAM network, pilot screen, dse1pr::URA3 reporter, 5-FOA selection (AID 869);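 note: 0% = DMSO wells with no growth and 100% = 10 µM 1-NA-PP1 with full growth; RAM network block rescues cells from 5-FOA so hits raise OD615 growth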
# Protocol conditions: S. cerevisiae dse1pr::URA3 5-FOA growth, OD615, 2 d; at 10 µM; stronger effect = higher value; strain carries analog-sensitive mutant Cbk1 kinase
# maps each entry to its inhibition

Molecule: Cc1cc(C)n2nc(SCC(=O)Nc3ccc(F)cc3)nc2n1
inhibition / %: 2.25
//
Molecule: Cc1nc2c3ccccc3n(CC(=O)c3ccc(F)cc3)c(=O)n2n1
inhibition / %: 3.38
//
Molecule: O=C(NCCN1CCN(c2ccccc2F)CC1)C1CCCN(S(=O)(=O)c2cnc[nH]2)C1 (stereo unspecified)
inhibition / %: 2.38
//
Molecule: O=C(Nc1nnc(-c2ccc(F)cc2)o1)c1ccco1
inhibition / %: 1.46
//
Molecule: COc1ccc(NC2c3ccccc3C(=O)N2c2cccnc2)cc1Cl (stereo unspecified)
inhibition / %: 2.27
//
Molecule: CC(Oc1ccccc1)C(=O)OCC(=O)NC(=O)NCc1ccco1 (stereo unspecified)
inhibition / %: 3.58
//
Molecule: CCCCn1c(CNC(=O)CC)nc2ccccc21
inhibition / %: 0.825
//
Molecule: CCCc1ccc(-c2ccc(C(=O)O)cc2)nc1
inhibition / %: -0.425
//
Molecule: CC(C)C12CN3CC(C(C)C)(CN(C1)C3c1ccccc1)C2O (stereo unspecified)
inhibition / %: 1.8
//
Molecule: Cc1csc(=N)n1-c1ccc(Cl)cc1
inhibition / %: 1.35
//
Molecule: CC1CCN(CC(C)OC(=O)c2ccc3c(c2)OCCO3)CC1 (stereo unspecified)
inhibition / %: 1.62
//
Molecule: O=C(CCCC(=O)OCC(F)(F)C(F)F)Nc1nccs1
inhibition / %: 1.56
//
Molecule: Nc1ccc(-c2nc3ccc(N)cc3o2)cc1
inhibition / %: 3.98
//
Molecule: O=C(CCNS(=O)(=O)c1cccc2nsnc12)NC1CCCc2ccccc21 (stereo unspecified)
inhibition / %: 1.23
//
Molecule: CC1CC(C)CN(S(=O)(=O)c2ccc(NC(=O)C3COc4ccccc4O3)cc2)C1 (stereo unspecified)
inhibition / %: 3.38
//
Molecule: CCc1nnc(NC(=O)c2ccc(S(=O)(=O)N3CCOCC3)cc2)s1
inhibition / %: 1.92
//
Molecule: CCOCCn1c(COc2ccccc2)nc2ccccc21
inhibition / %: 1.88
//
Molecule: Cc1cc(=O)[nH]c(SCc2cc(Cl)ccc2OC(F)F)n1
inhibition / %: 1.62
//
Molecule: CCCCN1C(=O)/C(=C2\SC(N3CCCCC3)=NC2=O)c2ccccc21
inhibition / %: 1.53
//
Molecule: CCOC(=O)c1sc(NC(=O)C2CC2)cc1C
inhibition / %: 2.37
//
Molecule: CCCCOCCCNC(=O)Cc1cccs1
inhibition / %: 0.465
